Molecular target: T1, Atox1, fluorescently labelled (NT-647-NHS) (UniProt O00244 1-68, red fluorescent NT-647-NHS on lysine residues)
T1 construct: Atox1 copper metallochaperone; also called metallochaperone Atox1; source: E. coli Origami 2, purified as for ATP7B MBD3-4 (chitin beads, intein self-cleaved with DTT)
T1 sequence (looked up): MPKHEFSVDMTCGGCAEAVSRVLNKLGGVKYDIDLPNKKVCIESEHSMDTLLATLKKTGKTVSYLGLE
Test: MST; with Cu(I) 40 uM; labelled protein 50 nM, peptide titrated; 25 mM Na2HPO4 pH 8, 150 mM NaCl, 0.05% Tween 20; 25 C; Monolith NT.115
Conditions: both partners purified
MEASURED ATTRIBUTE: Kd (µM)

[
  {
    "BINDER": "KERTSR (Made on rink-amide resin, which would give a C-terminal amide; also called KERTSR; source: synthetic peptide (Fmoc, rink-amide resin, reverse phase HPLC; 99.4% purity)) [KER peptide]",
    "OBSERVED RESULT": 20
  },
  {
    "BINDER": "SMDMSIE (Made on rink-amide resin, which would give a C-terminal amide; also called SMDMSIE; source: synthetic peptide (Fmoc, rink-amide resin, reverse phase HPLC; 95.1% purity)) [SMD peptide]",
    "OBSERVED RESULT": 39
  }
]

These measurements were taken from paper PMC9589254.
